- Target Of Assay: Recombinant, full length human FLAG-tagged ATM (Homo sapiens (Human), UniProt Q13315)
- Sequence (Q13315 whole entry): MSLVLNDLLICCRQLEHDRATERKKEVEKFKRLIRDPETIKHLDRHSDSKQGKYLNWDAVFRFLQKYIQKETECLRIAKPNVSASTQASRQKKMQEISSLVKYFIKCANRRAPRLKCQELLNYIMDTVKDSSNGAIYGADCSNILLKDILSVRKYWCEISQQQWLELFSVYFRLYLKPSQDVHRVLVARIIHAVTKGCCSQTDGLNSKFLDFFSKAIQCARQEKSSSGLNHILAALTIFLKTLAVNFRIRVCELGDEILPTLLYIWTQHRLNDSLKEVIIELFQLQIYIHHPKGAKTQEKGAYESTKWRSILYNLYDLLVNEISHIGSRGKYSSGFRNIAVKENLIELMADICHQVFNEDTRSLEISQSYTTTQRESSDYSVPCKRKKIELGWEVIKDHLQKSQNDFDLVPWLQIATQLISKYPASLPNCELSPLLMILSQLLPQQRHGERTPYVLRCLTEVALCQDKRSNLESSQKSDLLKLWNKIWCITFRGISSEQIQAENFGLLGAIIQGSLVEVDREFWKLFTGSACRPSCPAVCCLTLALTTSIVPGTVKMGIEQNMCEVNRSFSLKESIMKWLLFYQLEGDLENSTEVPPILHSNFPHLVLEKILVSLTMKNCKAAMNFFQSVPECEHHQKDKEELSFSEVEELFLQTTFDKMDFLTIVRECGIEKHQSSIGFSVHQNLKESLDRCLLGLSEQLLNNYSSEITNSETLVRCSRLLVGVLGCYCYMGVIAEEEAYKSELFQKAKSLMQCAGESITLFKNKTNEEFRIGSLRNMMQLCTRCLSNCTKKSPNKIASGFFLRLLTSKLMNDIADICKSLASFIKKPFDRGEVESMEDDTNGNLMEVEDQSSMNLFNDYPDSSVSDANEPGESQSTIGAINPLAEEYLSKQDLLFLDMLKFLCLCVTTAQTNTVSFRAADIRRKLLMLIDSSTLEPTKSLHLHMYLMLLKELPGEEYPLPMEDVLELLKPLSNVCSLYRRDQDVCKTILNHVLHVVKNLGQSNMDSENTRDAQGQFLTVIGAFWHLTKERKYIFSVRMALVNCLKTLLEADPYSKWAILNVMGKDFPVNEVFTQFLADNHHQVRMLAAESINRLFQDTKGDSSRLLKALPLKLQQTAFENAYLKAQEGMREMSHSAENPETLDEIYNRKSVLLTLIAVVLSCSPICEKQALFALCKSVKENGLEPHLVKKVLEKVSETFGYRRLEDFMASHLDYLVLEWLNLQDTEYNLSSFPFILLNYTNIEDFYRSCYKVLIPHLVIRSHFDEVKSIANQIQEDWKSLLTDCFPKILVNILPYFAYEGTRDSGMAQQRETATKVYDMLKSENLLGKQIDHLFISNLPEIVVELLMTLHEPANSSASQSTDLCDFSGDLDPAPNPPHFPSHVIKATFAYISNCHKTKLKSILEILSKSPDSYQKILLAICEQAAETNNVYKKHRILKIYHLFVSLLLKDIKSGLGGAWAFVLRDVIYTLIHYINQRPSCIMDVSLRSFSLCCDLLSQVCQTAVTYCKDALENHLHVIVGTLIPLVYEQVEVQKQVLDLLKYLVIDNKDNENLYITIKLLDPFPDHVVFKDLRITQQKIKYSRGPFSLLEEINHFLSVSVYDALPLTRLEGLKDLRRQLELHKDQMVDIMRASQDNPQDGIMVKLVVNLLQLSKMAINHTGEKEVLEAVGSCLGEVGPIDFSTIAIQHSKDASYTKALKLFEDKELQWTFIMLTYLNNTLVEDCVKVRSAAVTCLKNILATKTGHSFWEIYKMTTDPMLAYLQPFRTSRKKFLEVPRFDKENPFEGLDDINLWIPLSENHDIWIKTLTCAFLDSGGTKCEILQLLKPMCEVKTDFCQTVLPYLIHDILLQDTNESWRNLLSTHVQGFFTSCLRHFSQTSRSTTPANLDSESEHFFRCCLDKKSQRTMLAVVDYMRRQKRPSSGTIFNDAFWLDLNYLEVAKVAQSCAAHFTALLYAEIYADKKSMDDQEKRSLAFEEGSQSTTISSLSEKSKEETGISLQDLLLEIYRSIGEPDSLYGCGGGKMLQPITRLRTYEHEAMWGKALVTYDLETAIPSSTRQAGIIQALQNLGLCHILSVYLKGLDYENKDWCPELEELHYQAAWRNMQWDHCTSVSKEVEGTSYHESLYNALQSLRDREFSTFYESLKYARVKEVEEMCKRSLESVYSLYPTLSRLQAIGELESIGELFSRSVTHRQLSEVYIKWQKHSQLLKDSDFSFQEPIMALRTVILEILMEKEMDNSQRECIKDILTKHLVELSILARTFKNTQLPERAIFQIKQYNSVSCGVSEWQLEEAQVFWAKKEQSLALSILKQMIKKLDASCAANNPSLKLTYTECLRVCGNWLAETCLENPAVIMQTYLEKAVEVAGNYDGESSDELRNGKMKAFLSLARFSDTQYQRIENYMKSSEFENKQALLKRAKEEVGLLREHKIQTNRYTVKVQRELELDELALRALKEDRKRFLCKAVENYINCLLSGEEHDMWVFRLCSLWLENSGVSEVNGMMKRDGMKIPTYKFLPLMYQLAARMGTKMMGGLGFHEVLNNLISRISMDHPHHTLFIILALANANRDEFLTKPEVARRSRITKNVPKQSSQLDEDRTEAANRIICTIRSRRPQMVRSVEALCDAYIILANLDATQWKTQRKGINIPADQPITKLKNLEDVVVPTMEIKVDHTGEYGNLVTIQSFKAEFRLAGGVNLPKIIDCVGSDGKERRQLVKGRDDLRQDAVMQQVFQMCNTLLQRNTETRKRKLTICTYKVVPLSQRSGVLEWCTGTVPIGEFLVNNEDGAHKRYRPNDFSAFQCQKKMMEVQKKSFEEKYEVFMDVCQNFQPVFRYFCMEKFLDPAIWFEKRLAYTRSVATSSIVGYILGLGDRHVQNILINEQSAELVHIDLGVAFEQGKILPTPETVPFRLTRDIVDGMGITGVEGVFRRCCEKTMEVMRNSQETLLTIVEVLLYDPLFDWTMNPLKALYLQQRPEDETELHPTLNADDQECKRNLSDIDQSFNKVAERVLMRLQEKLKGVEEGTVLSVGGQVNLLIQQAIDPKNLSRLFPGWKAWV
- Experimental Details: ATM ELISA for p53 S15 phosphorylation
- Stated Conditions: 0.75 nM ATM, 25 nM p53, 10 μM ATP, 30 min at 20° C.; read-out: ATM BIO IC50
- Description: ATM: Recombinant, full length human FLAG-tagged ATM activity (Eurofins 14-933) was measured in an ELISA for p53 S15 phosphorylation, in a 384 well V-bottom polypropylene plate (Greiner Bio One 781280). […] Phosphorylation was measured using an antibody specific to p53 S15 phosphorylation (1:5000 Abcam ab38497), anti-rabbit HRP (1:1000 Cell Signalling Technology, 7074) and TMB (ab171522). […]
pIC50: −log10 of the molar value.
Measured pIC50 accompanies every entry in the list below.
Readout Name: pIC50

O=c1cc(N2CCOCC2)nc(N2C[C@@H]3C[C@@H]3[C@@H]2Cc2ccccc2)[nH]1 :: 8.43
C[C@@H]1CN(c2cc(N3[C@@H]4CC[C@@H](C4)[C@@H]3Cc3ccccc3)[nH]c(=O)c2)CCO1 :: 7.14
C[C@@H](c1ccccc1)[C@@H]1CCCN1c1nc(N2CCOCC2)cc(=O)[nH]1 :: 8.30
COC[C@@H](C)Oc1cccc(C[C@H]2CCCN2c2cc(N3CCOCC3)cc(=O)[nH]2)c1 :: 7.38

* * *

Measured pIC50 accompanies every entry in the list below.
- Target Of Assay: Recombinant, full length human FLAG-tagged ATM (Homo sapiens (Human))
- Experimental Details: ATM ELISA for p53 S15 phosphorylation
- Stated Conditions: 0.75 nM ATM, 25 nM p53, 10 μM ATP, 30 min at 20° C.; read-out: ATM BIO IC50
pIC50: −log10 of the molar value.
Readout Name: pIC50

COc1cccc(C[C@H]2CCCN2c2cc(N3CCOCC3)cc(=O)[nH]2)c1 :: 7.26
O=c1cc(N2CCOCC2)cc(N2CCCCC[C@@H]2Cc2cccc3c2OCC3)[nH]1 :: 7.74
O=c1cc(N2CCOCC2)nc(N2CCCC[C@@H]2Cc2ccccc2)[nH]1 :: 8.55
O=c1cc(N2CCOCC2)nc(N2CCCCC[C@@H]2Cc2ccccc2Cl)[nH]1 :: 7.40
COc1ccccc1C[C@H]1[C@H]2C[C@H]2CN1c1cc(N2CCOCC2)cc(=O)[nH]1 :: 7.83
C[C@@H]1CN(c2cc(=O)[nH]c(N3C[C@H]4C[C@H]4[C@@H]3Cc3ccccc3)n2)CCO1 :: 7.95
CC1C[C@H](Cc2ccccc2)N(c2cc(N3CCOCC3)cc(=O)[nH]2)C1 (single isomer, unassigned) [Example 101] :: 7.77
COc1ccccc1C[C@H]1CCCCCN1c1nc(N2CCOCC2)cc(=O)[nH]1 :: 7.85
COc1ccc(C[C@H]2CCCCCN2c2cc(N3CCOCC3)cc(=O)[nH]2)cc1 :: 7.49
C[C@@H]1CN(c2cc(=O)[nH]c(N3CCC[C@@H]3Cc3ccccc3)n2)CCO1 :: 7.62
O=c1cc(N2CCOCC2)nc(N2CCC[C@@H]2Cc2ccccc2)[nH]1 :: 8.10
O=c1cc(N2CCOCC2)cc(N2CCCCC[C@@H]2Cc2cccc3c2OCO3)[nH]1 :: 8.62
O=c1cc(N2CCOCC2)nc(N2CC3(CC3)C[C@@H]2Cc2ccccc2)[nH]1 :: 8.01
C[C@H]1CCCN(c2nc(N3CCOCC3)cc(=O)[nH]2)[C@@H](Cc2ccc(F)cc2)C1 :: 8.28
Cc1ccc(C[C@H]2CCCN2c2nc(N3CCO[C@H](C)C3)cc(=O)[nH]2)cc1 :: 7.49
COc1ccccc1C[C@H]1[C@H](C)CCN1c1nc(N2CCO[C@H](C)C2)cc(=O)[nH]1 :: 7.39
Cc1ccc(C[C@H]2CCCN2c2cc(N3CCOCC3)cc(=O)[nH]2)cc1 :: 7.27

* * *

- Target Of Assay: cellular ATM activity (Homo sapiens (Human))
- Experimental Details: Inhibition of cellular ATM activity: etoposide-stimulated KAP1 phosphorylation in U20S cells
- Stated Conditions: 100 μM etoposide, 60 min, read-out: ATM CELL IC50
Measured IC50 accompanies every entry in the list below.
Readout Name: IC50 (nM)

O=c1cc(N2CCOCC2)nc(N2CCC[C@@H]2Cc2ccc(Cl)c(Cl)c2)[nH]1 :: 939
COc1ccc(OC)c(C[C@H]2CCCCCN2c2cc(N3CCOCC3)cc(=O)[nH]2)c1 :: 603
CC1C[C@H](Cc2ccccc2)N(c2nc(N3CCO[C@H](C)C3)cc(=O)[nH]2)C1 (single isomer, unassigned) :: 1680
COc1ccc(C[C@H]2CCCCCN2c2cc(N3CCOCC3)cc(=O)[nH]2)cc1 :: 371
COc1ccccc1C[C@H]1CCCCCN1c1nc(N2CCOCC2)cc(=O)[nH]1 :: 693
C[C@@H]1CN(c2cc(=O)[nH]c(N3C[C@@H]4C[C@@H]4[C@@H]3Cc3ccccc3)n2)CCO1 :: 1310
O=c1cc(N2CCOCC2)cc(N2CC[C@@H](F)[C@@H]2Cc2ccccc2)[nH]1 :: 270
C[C@@H]1CN(c2cc(=O)[nH]c(N3CCC[C@@H]3Cc3ccccc3)n2)C[C@@H](C)O1 :: 528

* * *

- Target Of Assay: cellular ATM activity (Homo sapiens (Human), UniProt Q13315)
- Experimental Details: Inhibition of cellular ATM activity: etoposide-stimulated KAP1 phosphorylation in U20S cells
- Stated Conditions: 100 μM etoposide, 60 min, read-out: ATM CELL IC50
The label 1.0 is reserved for IC50 strictly under 300 nM; 0.0 covers values equal to or above it.

CC1COCCN1c1cc(=O)[nH]c(N2CCCC2Cc2ccccc2)n1 (single isomer, unassigned) [Example 339] :: 0.0
C[C@H]1CCCN(c2nc(N3CCO[C@H](C)C3)cc(=O)[nH]2)[C@@H](Cc2ccccc2)C1 [Example 312] :: 0.0
O=c1cc(N2CCOCC2)nc(N2C[C@@H]3C[C@@H]3[C@@H]2Cc2ccc(F)cc2)[nH]1 [Example 207] :: 1.0
O=c1cc(N2CCOCC2)cc(N2C[C@@H]3CCC[C@@H]3[C@@H]2Cc2ccccc2)[nH]1 [Example 124] :: 1.0

* * *

- Target Of Assay: cellular ATM activity (Homo sapiens (Human), UniProt Q13315)
- Experimental Details: Inhibition of cellular ATM activity: etoposide-stimulated KAP1 phosphorylation in U20S cells
- Stated Conditions: 100 μM etoposide, 60 min, read-out: ATM CELL IC50
Readout Name: IC50 (nM)

O=c1cc(N2CCOCC2)nc(N2CC[C@H](O)[C@@H]2Cc2ccccc2)[nH]1 :: 1260
Cc1ccccc1C[C@H]1CCCCCN1c1cc(N2CCOCC2)cc(=O)[nH]1 :: 530
C[C@H]1CCCN(c2nc(N3CCO[C@H](C)C3)cc(=O)[nH]2)[C@@H](Cc2ccc(F)cc2)C1 :: 1660
COc1ccccc1C[C@H]1CCCCCN1c1cc(N2CCOCC2)cc(=O)[nH]1 :: 501
CC1OCCN(c2cc(=O)[nH]c(N3CCCC3Cc3ccccc3)n2)C1C (single isomer, unassigned) :: 1530
C[C@@H]1CCN(c2nc(N3CCOCC3)cc(=O)[nH]2)[C@H]1Cc1ccccc1 :: 74
COC[C@@H](C)Oc1ccc(C[C@H]2CCCCCN2c2cc(N3CCOCC3)cc(=O)[nH]2)cc1 :: 1020
O=c1cc(N2CCOCC2)nc(N2CCC[C@@H]2Cc2ccc(F)cc2)[nH]1 :: 598
O=c1cc(N2CCOCC2)nc(N2CCC[C@@H]2Cc2ccccc2)[nH]1 :: 451
O=c1cc(N2CCOCC2)nc(N2CCCCC[C@@H]2Cc2cccc3c2OCC3)[nH]1 :: 260

* * *

Measured pIC50 accompanies every entry in the list below.
- Target Of Assay: cellular ATM activity (Homo sapiens (Human))
- Experimental Details: Inhibition of cellular ATM activity: etoposide-stimulated KAP1 phosphorylation in U20S cells
- Stated Conditions: 100 μM etoposide, 60 min, read-out: ATM CELL IC50
pIC50: −log10 of the molar value.
Readout Name: pIC50

Cc1ccc(C[C@H]2CCCN2c2nc(N3CCO[C@H](C)C3)cc(=O)[nH]2)cc1 :: 6.39
COc1ccccc1C[C@H]1[C@@H](F)CCN1c1nc(N2CCO[C@H](C)C2)cc(=O)[nH]1 :: 5.78
C[C@@H](c1ccccc1)[C@@H]1CCCN1c1nc(N2CCOCC2)cc(=O)[nH]1 :: 6.82
CC1CCC[C@H](Cc2ccccc2)N(c2nc(N3CCOCC3)cc(=O)[nH]2)C1 (single isomer, unassigned) [Example 246] :: 5.97
COc1cccc(C[C@H]2CCCCCN2c2nc(N3CCOCC3)cc(=O)[nH]2)c1OC :: 6.06
COc1ccccc1C[C@H]1CCCN1c1cc(N2CCOCC2)cc(=O)[nH]1 :: 5.99
C[C@H]1CCN(c2nc(N3CCOCC3)cc(=O)[nH]2)[C@H]1Cc1ccccc1 :: 5.52
C[C@@H]1CN(c2cc(=O)[nH]c(N3CCCCC[C@@H]3Cc3ccccc3)n2)C[C@@H](C)O1 :: 6.46
O=c1cc(N2CCOCC2)nc(N2C[C@H]3C[C@H]3[C@@H]2Cc2ccc(F)cc2)[nH]1 :: 6.42
O=c1cc(N2CCOCC2)nc(N2CCCCC[C@@H]2Cc2ccc(F)cc2)[nH]1 :: 6.79
O=c1cc(N2CCOCC2)cc(N2CCCCC[C@@H]2Cc2cccs2)[nH]1 :: 6.59
COc1ccccc1C[C@H]1CC2(CC2)CN1c1nc(N2CCOCC2)cc(=O)[nH]1 :: 6.46
O=c1cc(N2CCOCC2)nc(N2C[C@@H]3C[C@@H]3[C@@H]2Cc2ccccc2)[nH]1 :: 6.35
C[C@@H]1CN(c2cc(=O)[nH]c(N3CCCCC[C@@H]3Cc3cccc4c3OCC4)n2)CCO1 :: 6.24
O=c1cc(N2CCOCC2)nc(N2CCCCC[C@@H]2Cc2ccsc2)[nH]1 :: 6.38
COc1ccccc1C[C@H]1C[C@@H](C)CCCN1c1nc(N2CCOCC2)cc(=O)[nH]1 :: 6.23
O=c1cc(N2CCOCC2)nc(N2CCC(F)(F)[C@@H]2Cc2ccccc2)[nH]1 :: 6.36
